// data source = ChEMBL document CHEMBL5120880

# System: HeLa
# assay.text: Antiproliferative activity against human HeLA cells by MTT assay
# Assay type: functional, cell-based
property: EC50 (µM)
Unit µM implied. Number only.

Could you share which EC50 value was measured for O=C(Cc1ccccc1)NC1CC2CN(Cc3ccccc3)CC3C2CC=C(COC(=O)Cc2ccccc2)C13 (stereo unspecified) ?
10.3

---

# Test system: NALM-6
# assay.text: Antitumor activity against human NALM-6 cells assessed as cell growth inhibition
# Format: functional, cell-based
property: EC50 (µM)
Unit µM implied. Number only.

Could you share which EC50 value was measured for CCCCCCCCCCCCCCc1cccc(O[C@H]2C[C@@H](C(=O)NCC(c3ccccc3)c3ccccc3)N(C(=O)[C@@H](NC(=O)[C@H](C)NC)C(C)(C)C)C2)c1 ?
11.1

Could you share which EC50 value was measured for CCCCCCCCCCCCCCCCCCS[C@H]1C[C@@H](C(=O)NCC(c2ccccc2)c2ccccc2)N(C(=O)[C@@H](NC(=O)[C@H](C)NC)C(C)(C)C)C1 ?
26.9
